measuredTarget: serotonin 1A receptor (Rattus norvegicus, UniProt P19327)
Construct: the cortex and hippocampal tissue were extracted from the brain; from tissue; host or cells: brain cortex and hippocampus of 7-week-old male S.D. rats, washed membrane homogenate
Sequence (P19327 whole entry): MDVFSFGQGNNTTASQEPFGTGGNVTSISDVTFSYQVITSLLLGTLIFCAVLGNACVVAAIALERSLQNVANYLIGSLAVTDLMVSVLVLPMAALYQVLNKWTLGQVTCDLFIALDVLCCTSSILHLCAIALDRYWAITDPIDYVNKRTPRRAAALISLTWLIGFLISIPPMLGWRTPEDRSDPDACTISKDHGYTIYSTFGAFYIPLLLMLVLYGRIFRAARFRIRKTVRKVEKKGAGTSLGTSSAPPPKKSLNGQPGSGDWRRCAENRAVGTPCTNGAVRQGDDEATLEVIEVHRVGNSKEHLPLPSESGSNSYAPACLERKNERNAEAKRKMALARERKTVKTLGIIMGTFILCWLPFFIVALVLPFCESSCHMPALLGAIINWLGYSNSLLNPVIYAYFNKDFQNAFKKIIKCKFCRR
protocolNotes: Serotonin 1A receptor binding experiment (3H-8-OH-DPAT)
assayContext: -logIC50 5-HT1A, rat cortex and hippocampal tissue; 0.5 nM 3H-8-OH-DPAT; IC50 in M
pIC50: −log10 of the molar value.
quantityMeasured: pIC50

>  <compound>
O=C1C2C3CCC(C3)C2C(=O)N1CCCCN1CCN(c2ncccn2)CC1 (stereo not shown) [SM-3997, reference compound]

>  <measuredTarget>
serotonin 1A receptor (Rattus norvegicus, UniProt P19327)

>  <observedMeasurement>
7.50

$$$$

====

System: S.D. line male rats
protocolNotes: Antianxiety effect, water drinking under punishment (Vogel)
Format: in vivo, rat
assayContext: Rattus norvegicus, po; peroral 20 mg/kg; read-out: Antianxiety effect, Efficacy
Binary call on change in vivo at 20 mg/kg with cut-off 40%: strictly below means label 1, and equality or higher means label 0.

>  <compound>
O=C(NCCNCC1COc2ccc(O)cc2O1)C12CC3CC(CC(C3)C1)C2 (stereo not drawn)

>  <group>
label 0

$$$$
>  <compound>
O=C1CC2(CCCC2)CC(=O)N1CCNCC1COc2ccccc2O1 (stereo not drawn) [MDL-73005, reference compound]

>  <group>
label 0

$$$$
>  <compound>
COc1cccc2c1OCC(CNCCNC(=O)C13CC4CC(CC(C4)C1)C3)O2 (stereo not drawn)

>  <group>
label 1

$$$$
>  <compound>
O=C1CC2(CCCC2)CC(=O)N1CCCCN1CCN(c2ncccn2)CC1

>  <group>
label 1

$$$$
>  <compound>
Cc1ccc2c(c1)OCC(CNCCNC(=O)C13CC4CC(CC(C4)C1)C3)O2 (stereo not drawn)

>  <group>
label 0

$$$$
>  <compound>
O=C(NCCNCC1COc2ccc(Cl)cc2O1)C12CC3CC(CC(C3)C1)C2 (stereo not drawn)

>  <group>
label 0

$$$$
>  <compound>
Cc1cccc2c1OC(CNCCNC(=O)C13CC4CC(CC(C4)C1)C3)CO2 (stereo not drawn)

>  <group>
label 0

$$$$

====

measuredTarget: serotonin 2 receptor (Rattus norvegicus, UniProt P14842)
Construct: the cortex and hippocampal tissue were extracted from the brain; from tissue; host or cells: brain cortex and hippocampus of 7-week-old male S.D. rats, washed membrane homogenate
Sequence (P14842 whole entry): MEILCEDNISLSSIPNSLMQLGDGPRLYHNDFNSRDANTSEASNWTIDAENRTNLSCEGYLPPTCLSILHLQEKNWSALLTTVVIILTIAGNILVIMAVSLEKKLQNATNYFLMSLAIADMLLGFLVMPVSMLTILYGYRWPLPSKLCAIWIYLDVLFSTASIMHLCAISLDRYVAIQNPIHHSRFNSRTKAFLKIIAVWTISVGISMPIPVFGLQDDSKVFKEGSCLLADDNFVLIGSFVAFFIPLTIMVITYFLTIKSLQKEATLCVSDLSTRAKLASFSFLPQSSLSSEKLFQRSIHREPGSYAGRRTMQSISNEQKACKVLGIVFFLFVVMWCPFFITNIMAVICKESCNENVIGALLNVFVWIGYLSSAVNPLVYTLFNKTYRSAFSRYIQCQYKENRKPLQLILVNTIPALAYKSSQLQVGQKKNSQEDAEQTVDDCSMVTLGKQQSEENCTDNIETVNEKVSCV
protocolNotes: Serotonin 2 receptor binding experiment (3H-ketancerine)
assayContext: rat cortex and hippocampal tissue; 0.5 nM 3H-ketancerine; IC50 in M; read-out: -logIC50 5-HT2 (converted)
Counter-ions that a name gives are not always drawn.
Recorded IC50 values for a group of compounds are listed next.
quantityMeasured: IC50 (nM)

>  <compound>
COc1ccc2c(c1)OC(CNCCNC(=O)C13CC4CC(CC(C4)C1)C3)CO2 (stereo not drawn)

>  <censoringOperator>
=

>  <observedMeasurement>
25.1

$$$$
>  <compound>
Cc1cc(C)c2c(c1)OCC(CNCCNC(=O)C13CC4CC(CC(C4)C1)C3)O2 (stereo not drawn)

>  <censoringOperator>
=

>  <observedMeasurement>
200

$$$$
>  <compound>
O=C(NCCNCC1COc2ccc(O)cc2O1)C12CC3CC(CC(C3)C1)C2 (stereo not drawn)

>  <censoringOperator>
=

>  <observedMeasurement>
251

$$$$
>  <compound>
O=C(NCCNCC1COc2ccc(Cl)cc2O1)C12CC3CC(CC(C3)C1)C2 (stereo not drawn)

>  <censoringOperator>
=

>  <observedMeasurement>
42.7

$$$$
>  <compound>
Nc1ccc2c(c1)OC(CNCCNC(=O)C13CC4CC(CC(C4)C1)C3)CO2 (stereo not drawn)

>  <censoringOperator>
=

>  <observedMeasurement>
200

$$$$
>  <compound>
C=CCN(CCNC(=O)C12CC3CC(CC(C3)C1)C2)CC1COc2cccc(C)c2O1 (stereo not drawn)

>  <censoringOperator>
=

>  <observedMeasurement>
1000

$$$$
>  <compound>
Cc1cccc2c1OC(CNCCNC(=O)C13CC4CC(CC(C4)C1)C3)CO2 (single isomer, unassigned; (+)) [Compound 8, hydrochloride]

>  <censoringOperator>
=

>  <observedMeasurement>
50.1

$$$$
>  <compound>
CC(=O)c1cccc2c1OC(CNCCNC(=O)C13CC4CC(CC(C4)C1)C3)CO2 (stereo not drawn)

>  <censoringOperator>
=

>  <observedMeasurement>
63.1

$$$$
>  <compound>
O=C1CC2(CCCC2)CC(=O)N1CCNCC1COc2ccccc2O1 (stereo not drawn) [MDL-73005, reference compound]

>  <censoringOperator>
>

>  <observedMeasurement>
1000

$$$$
>  <compound>
O=C(NCCN1CCN(c2ncccn2)CC1)C12CC3CC(CC(C3)C1)C2 [WY-50324, reference compound]

>  <censoringOperator>
=

>  <observedMeasurement>
200

$$$$
>  <compound>
Cc1ccc2c(c1)OCC(CNCCNC(=O)C13CC4CC(CC(C4)C1)C3)O2 (stereo not drawn)

>  <censoringOperator>
=

>  <observedMeasurement>
23.4

$$$$
>  <compound>
Cc1cccc2c1OC(CN(CCNC(=O)C13CC4CC(CC(C4)C1)C3)Cc1ccccc1)CO2 (stereo not drawn)

>  <censoringOperator>
>

>  <observedMeasurement>
1000

$$$$
>  <compound>
COc1cccc2c1OCC(CNCCNC(=O)C13CC4CC(CC(C4)C1)C3)O2 (stereo not drawn)

>  <censoringOperator>
=

>  <observedMeasurement>
75.9

$$$$
>  <compound>
Cc1cccc2c1OC(CNCCNC(=O)C13CC4CC(CC(C4)C1)C3)CO2 (single isomer, unassigned; (-)) [Compound 7, hydrochloride]

>  <censoringOperator>
=

>  <observedMeasurement>
15.8

$$$$
>  <compound>
Cc1cccc2c1OC(CNCCNC(=O)C13CC4CC(CC(C4)C1)C3)CO2 (stereo not drawn) [Compound 1]

>  <censoringOperator>
=

>  <observedMeasurement>
30.2

$$$$
>  <compound>
CCCN(CCNC(=O)C12CC3CC(CC(C3)C1)C2)CC1COc2cccc(C)c2O1 (stereo not drawn)

>  <censoringOperator>
=

>  <observedMeasurement>
631

$$$$
>  <compound>
O=C1C2C3CCC(C3)C2C(=O)N1CCCCN1CCN(c2ncccn2)CC1 (stereo not drawn) [SM-3997, reference compound]

>  <censoringOperator>
=

>  <observedMeasurement>
550

$$$$
>  <compound>
CC(C)Cc1ccc2c(c1)OC(CNCCNC(=O)C13CC4CC(CC(C4)C1)C3)CO2 (stereo not drawn)

>  <censoringOperator>
=

>  <observedMeasurement>
316

$$$$
>  <compound>
O=C(NCCNCC1COc2cc(O)ccc2O1)C12CC3CC(CC(C3)C1)C2 (stereo not drawn)

>  <censoringOperator>
=

>  <observedMeasurement>
158

$$$$
>  <compound>
COc1cccc2c1OC(CNCCNC(=O)C13CC4CC(CC(C4)C1)C3)CO2 (stereo not drawn)

>  <censoringOperator>
=

>  <observedMeasurement>
10

$$$$
>  <compound>
O=C(NCCNCC1COc2cccc(O)c2O1)C12CC3CC(CC(C3)C1)C2 (stereo not drawn)

>  <censoringOperator>
=

>  <observedMeasurement>
50.1

$$$$
>  <compound>
O=C(NCCNCC1COc2c(O)cccc2O1)C12CC3CC(CC(C3)C1)C2 (stereo not drawn)

>  <censoringOperator>
=

>  <observedMeasurement>
1000

$$$$
>  <compound>
O=C(NCCNCC1COc2ccccc2O1)C12CC3CC(CC(C3)C1)C2 (stereo not drawn)

>  <censoringOperator>
=

>  <observedMeasurement>
35.5

$$$$
>  <compound>
Cc1ccc(C)c2c1OCC(CNCCNC(=O)C13CC4CC(CC(C4)C1)C3)O2 (stereo not drawn)

>  <censoringOperator>
=

>  <observedMeasurement>
79.4

$$$$

Origin of values: patent US5480905A
